The measurements presented in this section are drawn from PubChem BioAssay (EPA / NIEHS).

Molecular target: human Peroxisome Proliferator-activated Receptor alpha (PPARa), PPARA (gene 5465) (UniProt Q07869)
Sequence (Q07869 whole entry, looked up): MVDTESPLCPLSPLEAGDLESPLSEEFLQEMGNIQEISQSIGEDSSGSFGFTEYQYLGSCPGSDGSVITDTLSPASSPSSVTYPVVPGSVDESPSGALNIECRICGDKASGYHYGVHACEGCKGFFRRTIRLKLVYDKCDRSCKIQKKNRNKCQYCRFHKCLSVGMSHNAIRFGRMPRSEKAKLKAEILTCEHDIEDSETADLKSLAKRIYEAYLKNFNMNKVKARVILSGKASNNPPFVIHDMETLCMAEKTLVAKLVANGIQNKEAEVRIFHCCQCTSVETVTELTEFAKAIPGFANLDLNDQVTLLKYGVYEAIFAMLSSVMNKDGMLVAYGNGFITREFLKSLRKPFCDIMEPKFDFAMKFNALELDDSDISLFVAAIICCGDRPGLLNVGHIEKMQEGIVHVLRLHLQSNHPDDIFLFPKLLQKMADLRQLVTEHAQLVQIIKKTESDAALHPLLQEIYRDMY
Assay: NVS_NR_hPPARa: NovaScreen (NVS) Nuclear Receptor Binding Assay for human Peroxisome Proliferator-activated Receptor alpha (PPARa) (AID 2283359);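 note: activity means loss of TR-FRET signal versus DMSO baseline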
Inconclusive results are not listed. Activity calls are given as the source filed them. Rule for the calls: active = hit-call score of the fitted dose curve at least 0.9, where 1 is the maximum; inconclusive = response in the unintended direction; inactive = score below 0.9.
Pick from TRUE for active, FALSE for inactive when you respond.

Prompt line: Just curious, what result did COc1cc(C(C)C)c2c(c1)S(=O)(=O)N(COc1cc(=O)n3cccc(OCCN4CCCCC4)c3n1)C2=O get here?
Response line: FALSE

Prompt line: Just curious, what result did CCCCCCCCCCCCCCCCOS(=O)(=O)O get here?
Response line: FALSE

Prompt line: Just curious, what result did Cc1ncc([C@@H](CCCCCCc2ccc3c(n2)NCCC3)CC(=O)O)cn1 get here?
Response line: FALSE

Prompt line: Just curious, what result did O=C(O)c1cccc(C[C@@H]2COc3ccc(OCc4nc5cc(F)ccc5s4)cc3[C@@H]2O)c1 get here?
Response line: FALSE

Prompt line: Just curious, what result did C=CCc1cc(S(=O)(=O)c2ccc(O)c(CC=C)c2)ccc1O get here?
Response line: TRUE

Prompt line: Just curious, what result did OC(CCl)CCl get here?
Response line: TRUE
